# Assay Info: Solubility studies in distilled deionized water
# Assay type: physicochemical
# Settings: thermodynamic from solid
Endpoint Name: solubility at 24 h
Please append the unit to your numeric answer.

Task item: solubility at 24 h lookup needed for `Cc1cccc(C)c1OCC(=O)N[C@@H](Cc1ccccc1)[C@@H](O)C[C@H](Cc1ccccc1)NC(=O)[C@H](C(C)C)N1CCCNC1=O` , thanks.
Reply: 49 µg/mL
